- Type: physicochemical
- Condition: pH 2.0; 2-8° C.; 8 h
Would you kindly list % assay/degs, difference from T = 0 for each of these molecules?
Numbers only, in %.

Worked examples, 2 molecules total:
# Smiles Structure, % assay/degs, difference from T = 0, %
data = [
    ("N#C[C@@]1(c2ccc3c(N)ncnn23)O[C@H](CO)[C@@H](O)[C@H]1O", 0.00),
    ("CCC(CC)COC(=O)[C@H](C)N[P@](=O)(OC[C@H]1O[C@@](C#N)(c2ccc3c(N)ncnn23)[C@H](O)[C@@H]1O)Oc1ccccc1", "−0.1"),
]

Please turn your attention to the following entry.
Suppose we examine the molecule "N#C[C@@]1(c2ccc3c(N)ncnn23)O[C@H](COP(=O)(O)Oc2ccccc2)[C@@H](O)[C@H]1O" ; what % assay/degs, difference from T = 0 value has been reported? 0.06
